system: MDA-MB-468 breast; test: NCI-60 one-dose screen, 48 h (100 = growth as untreated, 0 = no growth, -100 = all killed); conditions: 10 µM unless noted
Compounds without any hit were thinned out: in the full panel of roughly 83,000, 20% have a hit.
outcome_measure: growth (%)
Note: unit % is implicit; provide only the numeric part.

Below are worked cases with known answers.
>>> observed_value("O=C1OC(=O)C2C1C1(Cl)C(Cl)=C(Cl)C2(Cl)C2C(=O)OC(=O)C21 (stereo not given)")
94.3
>>> observed_value("CCOC(=O)c1c(C)[nH]c(C(=O)CCC(=O)OC)c1C")
114
>>> observed_value("NC(=S)N/N=C1\\c2ccccc2-c2c(F)c(F)c(F)c(F)c21")
25.8
>>> observed_value("NC(CSC(c1ccccc1)(c1ccccc1)c1ccc2c(c1)OCO2)C(=O)O (stereo not given)")
-56.6
>>> observed_value("COc1ccc(-c2nn(-c3ccc(NC(=O)c4ccc(Cl)c(Cl)c4)cc3)cc2-c2ccncc2)cc1Cl")
47
>>> observed_value("O=C1/C(=C/c2ccccc2[N+](=O)[O-])COc2ccc(O)cc21")
-9.15
>>> observed_value("NC(=O)NC(=O)/C=C/C(=O)OCCCl")
88.5
>>> observed_value("NC(=O)c1cc2c3ccccc3ccn2c1-c1ccccc1")
17.5
>>> observed_value("N#CC[C@H](C1CCCC1)n1cc(-c2ncnc3[nH]ccc23)cn1")
71.3
>>> observed_value("COc1ccccc1CNCCN1C(=O)c2ccc3c4c(ccc(c24)C1=O)C(=O)N(CCNCc1ccccc1OC)C3=O")
-92.8

The record that follows has no growth shown yet.
[Q] Can you look up the measured growth of `COc1ccc(OC)c(C(=O)Nc2cccc(-c3cc(=O)c4ccccc4o3)c2)c1` for me?
[A] 92.9

From: PubChem BioAssay (NCI)
